Origin of measurements: ChEMBL document CHEMBL1135776

# study target: Sodium-dependent dopamine transporter (Homo sapiens)
# Sequence (Q01959 whole entry): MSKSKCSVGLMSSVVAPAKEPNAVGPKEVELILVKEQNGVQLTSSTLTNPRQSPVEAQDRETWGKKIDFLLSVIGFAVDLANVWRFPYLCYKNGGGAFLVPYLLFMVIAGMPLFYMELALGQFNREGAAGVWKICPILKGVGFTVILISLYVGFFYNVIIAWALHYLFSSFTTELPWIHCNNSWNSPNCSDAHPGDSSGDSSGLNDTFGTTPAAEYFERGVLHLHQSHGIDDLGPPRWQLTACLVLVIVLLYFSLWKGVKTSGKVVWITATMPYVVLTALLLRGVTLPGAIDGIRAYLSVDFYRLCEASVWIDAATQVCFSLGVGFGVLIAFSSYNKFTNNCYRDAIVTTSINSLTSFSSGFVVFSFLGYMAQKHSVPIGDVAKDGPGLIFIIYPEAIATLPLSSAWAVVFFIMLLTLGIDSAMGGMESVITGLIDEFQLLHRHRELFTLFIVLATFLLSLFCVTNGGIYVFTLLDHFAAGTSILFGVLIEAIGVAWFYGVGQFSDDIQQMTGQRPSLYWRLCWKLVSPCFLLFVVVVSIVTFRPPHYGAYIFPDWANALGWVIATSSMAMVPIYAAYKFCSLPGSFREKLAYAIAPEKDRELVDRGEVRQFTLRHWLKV
# protocol text: Ratio of the IC50 value of Mazindol to that in guinea pig was determined
# Type: functional
# condition notes: Cavia porcellus; target entry is the homologue from another species
parameter: Ratio

[[record]]
compound = "OC1(c2ccc(Cl)cc2)c2ccccc2C2=N[C@H]3CCCC[C@@H]3N21 (stereo partly specified)"
study_target = "Sodium-dependent dopamine transporter (Homo sapiens)"
parameter = "Ratio"
reported_relation = "="
observed_measurement = 15.8

[[record]]
compound = "OC1(c2ccc(Cl)cc2)c2ccccc2C2=NCCCN21 (stereo unspecified)"
study_target = "Sodium-dependent dopamine transporter (Homo sapiens)"
parameter = "Ratio"
reported_relation = "="
observed_measurement = 10.1

[[record]]
compound = "OC1(c2ccc3c(c2)CCCC3)c2ccccc2C2=NCCN21 (stereo unspecified)"
study_target = "Sodium-dependent dopamine transporter (Homo sapiens)"
parameter = "Ratio"
reported_relation = "<"
observed_measurement = 0.02

[[record]]
compound = "OC1(c2ccc3ccccc3c2)c2ccccc2C2=NCCN21 (stereo unspecified)"
study_target = "Sodium-dependent dopamine transporter (Homo sapiens)"
parameter = "Ratio"
reported_relation = "="
observed_measurement = 10.4

[[record]]
compound = "OC1(c2ccc(Cl)cc2)c2ccccc2C2=NCc3ccccc3CN21 (stereo unspecified)"
study_target = "Sodium-dependent dopamine transporter (Homo sapiens)"
parameter = "Ratio"
reported_relation = "<"
observed_measurement = 0.02

[[record]]
compound = "OC1(c2cccc3ccccc23)c2ccccc2C2=NCCN21 (stereo unspecified)"
study_target = "Sodium-dependent dopamine transporter (Homo sapiens)"
parameter = "Ratio"
reported_relation = "="
observed_measurement = 0.02

